Ref: patent US20260365670A1

molecular target: EGFR wild type (Homo sapiens); construct: purchased Carna Bio; assay: Inhibition of EGFR wild type biochemical enzymatic activity (HTRF); conditions: EGFR WT, 1 mM ATP, 1 h, room temperature, read-out: IC50 (nM) @WT
Sequence (P00533 25-1210): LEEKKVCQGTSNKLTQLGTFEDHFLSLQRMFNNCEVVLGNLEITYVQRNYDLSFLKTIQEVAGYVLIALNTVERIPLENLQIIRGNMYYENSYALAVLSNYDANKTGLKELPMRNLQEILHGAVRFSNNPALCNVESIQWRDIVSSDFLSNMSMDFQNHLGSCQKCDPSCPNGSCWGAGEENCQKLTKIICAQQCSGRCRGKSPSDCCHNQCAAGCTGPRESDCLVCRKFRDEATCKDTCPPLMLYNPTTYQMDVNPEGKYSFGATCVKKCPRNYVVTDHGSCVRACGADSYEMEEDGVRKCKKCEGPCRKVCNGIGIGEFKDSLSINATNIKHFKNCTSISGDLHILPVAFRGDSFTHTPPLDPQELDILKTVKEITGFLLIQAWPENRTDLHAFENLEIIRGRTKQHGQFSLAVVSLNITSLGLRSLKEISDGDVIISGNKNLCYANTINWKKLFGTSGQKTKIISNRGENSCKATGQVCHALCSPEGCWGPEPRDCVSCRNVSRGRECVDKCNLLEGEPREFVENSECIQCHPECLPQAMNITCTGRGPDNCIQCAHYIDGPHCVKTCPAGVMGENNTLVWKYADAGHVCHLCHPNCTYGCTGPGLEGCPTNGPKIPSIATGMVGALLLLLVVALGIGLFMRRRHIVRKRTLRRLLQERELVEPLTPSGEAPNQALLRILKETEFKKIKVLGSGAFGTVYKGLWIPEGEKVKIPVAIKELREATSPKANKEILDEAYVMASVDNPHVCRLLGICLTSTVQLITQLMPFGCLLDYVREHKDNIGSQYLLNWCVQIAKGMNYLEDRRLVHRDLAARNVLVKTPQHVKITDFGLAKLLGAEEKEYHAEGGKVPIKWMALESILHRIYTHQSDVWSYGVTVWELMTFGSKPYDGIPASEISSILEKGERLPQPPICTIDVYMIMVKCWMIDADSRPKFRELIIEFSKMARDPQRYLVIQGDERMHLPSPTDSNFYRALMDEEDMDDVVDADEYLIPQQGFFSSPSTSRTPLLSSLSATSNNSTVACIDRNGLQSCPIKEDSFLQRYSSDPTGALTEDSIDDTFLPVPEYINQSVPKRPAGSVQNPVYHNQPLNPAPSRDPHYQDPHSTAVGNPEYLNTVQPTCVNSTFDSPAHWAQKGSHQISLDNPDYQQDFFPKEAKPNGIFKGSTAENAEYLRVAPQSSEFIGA
Measurement type: IC50 (nM)

Field: example entries. Status: answers known.
CN1CCC12CCN(c1ccc3nc4n(c3c1)C13CCC(CN(CCOc5c(cnn5C)-c5cc(cn(C)c5=O)C(=O)N4)C1)C3)CC2 (single isomer, unassigned) [Example A67B]; 2.1
C[C@@H]1CCCOc2c(cnn2C)-c2cc(cn(C)c2=O)C(=O)Nc2nc3ccc(N4CCN(C5CC5)CC4)cc3n2C1; 2250

A: CN1CCN(c2ccc3nc4n(c3c2)CCN(CC(F)(F)F)CCOc2c(cnn2C2CC2)-c2cc(cn(C)c2=O)C(=O)N4)CC1
B: CN1CCC2(CCN(c3ccc4nc5n(c4c3)C34CCC(CN(CCOc6c(cnn6C)-c6cc(cn(C)c6=O)C(=O)N5)C3)C4)CC2)C1 (single isomer, unassigned) [Example A82A]
Select the item with the higher value of IC50 from the options A and B listed. // output: label of the selected item
B

P: CN(C)CCC1CN(c2ccc3nc4n(c3c2)C23CCC(CN(CCOc5c(cnn5C)-c5cc(cn(C)c5=O)C(=O)N4)C2)C3)C1 (single isomer, unassigned) [Example A95B]
Q: CN1CCC2(CC1)CN(c1ccc3nc4n(c3c1)C13CCC(CN(CCOc5c(cnn5C)-c5cc(cn(C)c5=O)C(=O)N4)C1)C3)C2 (single isomer, unassigned) [Example A77B]
Dear colleague, could you let me know whether P or Q has the lower recorded IC50? Thanks. Selection: enter the item's label.
Q
(Q: 7.3 nM, P: 55 nM)

1: CN(C)C1CCN(c2ccc3nc4n(c3c2)C23CCC(CC2)CN(CCOc2c(cnn2C)-c2cc(cn(C)c2=O)C(=O)N4)C3)CC1
2: CN1CCC2(C1)CN(c1ccc3nc4n(c3c1)C13CCC(CN(CCOc5c(cnn5C)-c5cc(cn(C)c5=O)C(=O)N4)C1)C3)C2 (single isomer, unassigned) [Example A78B]
3: C[C@@H]1CCCOc2c(cnn2C)-c2cc(cn(C)c2=O)C(=O)Nc2nc3ccc(N4CCC(N5CCOCC5)C4)cc3n2C1 (some centres unmarked)
4: Cn1ncc2c1OCCN1CC3CCC(C3)(C1)n1c(nc3ccc(N4CC(N5CCOCC5)C4)cc31)NC(=O)c1cc-2c(=O)n(C)c1 (single isomer, unassigned) [Example A69B]
Order these by IC50, descending, and give the full ranking. A ranking is expressed here by listing the labels in the requested order.
3, 1, 4, 2
(3: 4140 nM, 1: 1060 nM, 4: 291 nM, 2: 11 nM)

P: CN(C)CCCN(C)c1ccc2nc3n(c2c1)C12CCC(CC1)CN(CCOc1c(cnn1C)-c1cc(cn(C)c1=O)C(=O)N3)C2
Q: CN1CCOC2(C1)CN(c1ccc3nc4n(c3c1)C13CCC(CN(CCOc5c(cnn5C)-c5cc(cn(C)c5=O)C(=O)N4)C1)C3)C2 (single isomer, unassigned) [Example A86B]
Could you please tell me which of these two has the higher IC50: P or Q ? Write down the label attached to your selection.
P
(P: 4060 nM, Q: 110 nM)

I: CN(C)C1CN(c2ccc3nc4n(c3c2)C23CCC(CN(CCOc5c(cnn5C)-c5cc(cn(C)c5=O)C(=O)N4)C2)C3)C1 (single isomer, unassigned) [Example A65B]
II: C[C@@H]1CCCOc2c(cnn2C)-c2cc(cn(C)c2=O)C(=O)Nc2nc3ccc(N4CC(F)(CN(C)C)C4)cc3n2C1
Pick the one with the larger IC50: I vs II Respond using the label that marks the chosen record.
II
(II: 220 nM, I: 148 nM)

---

target: EGFR (C797S L858R) (Homo sapiens, UniProt P00533, C797S/L858R); construct: purchased signalchem; assay: Inhibition of EGFR (C797S L858R) biochemical enzymatic activity (HTRF); settings: EGFR L858-C797S, 1 mM ATP, 1 h, room temperature, read-out: IC50 (nM) @L858-C797S
Sequence (P00533 25-1210 C797S/L858R): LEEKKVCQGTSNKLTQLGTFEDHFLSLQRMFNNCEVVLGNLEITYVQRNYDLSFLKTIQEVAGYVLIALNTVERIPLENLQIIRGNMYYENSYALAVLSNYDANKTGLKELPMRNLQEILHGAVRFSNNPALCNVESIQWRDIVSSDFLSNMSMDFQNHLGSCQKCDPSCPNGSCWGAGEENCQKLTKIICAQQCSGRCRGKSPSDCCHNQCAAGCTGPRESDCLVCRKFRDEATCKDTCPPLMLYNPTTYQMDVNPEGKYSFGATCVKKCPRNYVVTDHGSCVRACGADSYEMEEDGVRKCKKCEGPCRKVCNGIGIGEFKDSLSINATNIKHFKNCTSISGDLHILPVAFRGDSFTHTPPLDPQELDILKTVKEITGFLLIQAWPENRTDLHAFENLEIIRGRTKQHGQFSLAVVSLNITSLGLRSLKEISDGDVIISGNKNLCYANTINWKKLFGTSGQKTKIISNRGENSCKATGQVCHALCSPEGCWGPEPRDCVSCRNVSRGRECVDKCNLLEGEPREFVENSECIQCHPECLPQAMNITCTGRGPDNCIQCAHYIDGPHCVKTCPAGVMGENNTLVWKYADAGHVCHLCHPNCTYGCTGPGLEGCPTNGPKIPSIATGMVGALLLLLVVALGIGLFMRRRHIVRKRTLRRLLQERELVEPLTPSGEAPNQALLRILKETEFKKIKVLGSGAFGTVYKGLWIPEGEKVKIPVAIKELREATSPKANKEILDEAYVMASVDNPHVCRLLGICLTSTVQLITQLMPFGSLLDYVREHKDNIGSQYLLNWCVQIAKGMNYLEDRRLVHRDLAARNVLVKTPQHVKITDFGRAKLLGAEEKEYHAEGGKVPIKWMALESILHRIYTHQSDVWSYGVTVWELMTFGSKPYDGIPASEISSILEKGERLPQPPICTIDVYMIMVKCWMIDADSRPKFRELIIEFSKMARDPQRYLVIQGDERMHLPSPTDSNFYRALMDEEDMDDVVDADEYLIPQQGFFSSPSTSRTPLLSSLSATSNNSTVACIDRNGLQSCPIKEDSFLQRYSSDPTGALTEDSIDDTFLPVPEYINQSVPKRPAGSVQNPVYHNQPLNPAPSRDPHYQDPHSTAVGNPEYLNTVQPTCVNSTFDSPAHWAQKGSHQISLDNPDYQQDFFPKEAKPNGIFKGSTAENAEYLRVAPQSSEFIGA
Measurement type: IC50 (nM)

CN1CCC2(CN(c3ccc4nc5n(c4c3)C34CCC(CN(CCOc6c(cnn6C)-c6cc(cn(C)c6=O)C(=O)N5)C3)C4)C2)C(F)(F)C1 (single isomer, unassigned) [Example A91B]; 8

I: Cn1ncc2c1OCCN1CC3CCC(C3)(C1)n1c(nc3ccc(N4CCC(N5CC(F)C5)C4)cc31)NC(=O)c1cc-2c(=O)n(C)c1 (single isomer, unassigned) [Example A94B1]
II: COCCN(C)c1ccc2nc3n(c2c1)C12CCC(CN(CCOc4c(cnn4C)-c4cc(cn(C)c4=O)C(=O)N3)C1)C2 (single isomer, unassigned) [Example A90B]
In the pair I and II , the larger recorded IC50 belongs to which? Write down the label of the entry you select.
II
(II: 31 nM, I: 15 nM)

I: C[C@@H]1CCCOc2c(cnn2C)-c2cc(cn(C)c2=O)C(=O)Nc2nc3ccc(N4CCC5(CCN(C)C5)CC4)cc3n2C1
II: CCN1CCN(c2ccc3nc4n(c3c2)C[C@H](C)CCCOc2c(cnn2C)-c2cc(cn(C)c2=O)C(=O)N4)CC1
Could you please tell me which of these two has the higher IC50: I or II ? Output the label that corresponds to your choice.
II

---

target: EGFR (d746-750 C797S) (Homo sapiens, UniProt P00533, C797S/DEL746-750); construct: purchased signalchem; test: Inhibition of EGFR (d746-750 C797S) biochemical enzymatic activity (HTRF); details: EGFR (d746-750 C797S), 1 mM ATP, 1 h at room temperature, read-out: IC50 @Del19-C797S
Sequence (P00533 with tags, fused parts or gaps DEL746-750/C797S limits assumed): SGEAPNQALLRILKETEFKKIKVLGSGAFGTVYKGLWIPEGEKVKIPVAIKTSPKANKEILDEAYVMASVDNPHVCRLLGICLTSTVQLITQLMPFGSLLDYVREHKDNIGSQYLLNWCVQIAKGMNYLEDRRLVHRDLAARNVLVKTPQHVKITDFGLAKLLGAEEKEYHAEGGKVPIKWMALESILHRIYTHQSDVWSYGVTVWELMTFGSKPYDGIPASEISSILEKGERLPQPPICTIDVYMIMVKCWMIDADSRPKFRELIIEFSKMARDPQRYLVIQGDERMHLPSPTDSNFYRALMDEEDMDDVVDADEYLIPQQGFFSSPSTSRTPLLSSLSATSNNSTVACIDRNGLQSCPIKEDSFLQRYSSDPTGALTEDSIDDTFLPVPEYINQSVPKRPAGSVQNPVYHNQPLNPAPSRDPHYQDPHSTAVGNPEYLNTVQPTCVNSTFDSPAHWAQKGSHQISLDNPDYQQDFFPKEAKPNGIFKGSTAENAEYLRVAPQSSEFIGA
Measurement type: IC50 (nM)

Use the examples below as a reference point.
Cc1cc2cc(n1)-c1cnn(C)c1OCCN1CC3CCC(C3)(C1)n1c(nc3ccc(N4CC(N5CCOCC5)C4)cc31)NC2=O (single isomer, unassigned) [Example B48A]; 1020
Cc1cc2cc(n1)-c1cnn(C)c1OCCN1CC3CCC(C3)(C1)n1c(nc3ccc(N4CCC(N5CCN(C)CC5)CC4)cc31)NC2=O (single isomer, unassigned) [Example B59B]; 5
Cc1cc2cc(n1)-c1cnn(C)c1OCCN1CC3CCC(C3)(C1)n1c(nc3ccc(N4CCN(C(C)C)CC4)cc31)NC2=O (single isomer, unassigned) [Example B57B]; 2.1
Cc1cc2cc(n1)-c1cnn(C)c1OCCN1CC3CCC(C3)(C1)n1c(nc3ccc(N4CCC5(CN(C)C5)C4)cc31)NC2=O (single isomer, unassigned) [Example B50B]; 2.1
Cc1cc2cc(n1)-c1cnn(C)c1OCCN1CC3CCC(C3)(C1)n1c(nc3ccc(N4CCN(C5COC5)CC4)cc31)NC2=O (single isomer, unassigned) [Example B58A]; 3890
Cc1cc2cc(n1)-c1cnn(C)c1OCCN1CC3CCC(C3)(C1)n1c(nc3ccc(N4CCC5(CCN(C)CC5)C4)cc31)NC2=O (single isomer, unassigned) [Example B51B]; 3.5

P: Cc1cc2cc(n1)-c1cnn(C)c1OCCN1CC3CCC(C3)(C1)n1c(nc3ccc(N4CCC(N5CCN(C)CC5)C4)cc31)NC2=O (single isomer, unassigned) [Example B49B]
Q: Cc1cc2cc(n1)-c1cnn(C)c1OCCN1CC3CCC(CC3)(C1)n1c(nc3ccc(N4CCC5(CN(C)C5)C4)cc31)NC2=O
R: CCN1CCN(c2ccc3nc4n(c3c2)C23CCC(CN(CCOc5c(cnn5C)-c5cc(cc(C)n5)C(=O)N4)C2)C3)CC1 (single isomer, unassigned) [Example B56B]
S: Cc1cc2cc(n1)-c1cnn(C)c1OCCN1CC3CCC(C3)(C1)n1c(nc3ccc(N4CC5CC4CN5C)cc31)NC2=O (single isomer, unassigned) [Example B53A]
Hey, quick one: sort these by IC50, low to high? # output: labels, in the requested order
R, P, Q, S

A: Cc1cc2cc(n1)-c1cnn(C)c1OCCN1CC3CCC(CC3)(C1)n1c(nc3ccc(N4CC5CN(C)CC5C4)cc31)NC2=O (stereo not shown)
B: Cc1cc2cc(n1)-c1cnn(C)c1OCCN1CC3CCC(CC3)(C1)n1c(nc3ccc(N(C)CCN(C)C)cc31)NC2=O
C: Cc1cc2cc(n1)-c1cnn(C)c1OCCN1CC3CCC(C3)(C1)n1c(nc3ccc(N4CC5CN(C)CC5C4)cc31)NC2=O (single isomer, unassigned) [Example B43B]
Exam item: list the entries in increasing order of IC50. Please list each label once, in the requested order.
C, B, A

A: Cc1cc2cc(n1)-c1cnn(C)c1OCCN1CC3CCC(CC3)(C1)n1c(nc3ccc(N4CCN(C5CC5)CC4)cc31)NC2=O
B: Cc1cc2cc(n1)-c1cnn(C)c1OCCN1CC3CCC(CC3)(C1)n1c(nc3ccc(N(C)CCCN(C)C)cc31)NC2=O
Which has the smaller recorded IC50, A or B ? Answer by quoting the chosen item's label.
A
(A: 10 nM, B: 22 nM)
